EXPERIMENT: HILIC, Waters ACQUITY UPLC BEH Amide, 100 × 2.1 mm, 1.7 µm; A: water + 0.125% formic acid + 10 mM ammonium formate; B: 5% water + 95% acetonitrile + 0.125% formic acid + 10 mM ammonium formate; gradient (min/%B) 0/100 2/100 7.7/70 9.5/40 10.25/30 12.75/100 17/100
MEASUREMENT PARAMETERS: stereoisomer not certain
# label = class 1 if LC retention time < 3 min else class 0

| MOLECULE | CLASS LABEL |
| --- | --- |
| O=C(O)C1NCCC1O (configuration not stated) [3-Hydroxyproline] | class 0 |
| NCCC(=O)O | class 0 |
| CNCCCC12CCC(c3ccccc31)c1ccccc12 | class 1 |
| COc1ccc2c(c1OC)C(=O)OC2C1c2c(cc3c(c2OC)OCO3)CCN1C (configuration not stated) | class 1 |
| CC(C)(C)NC(=O)C1CCC2C3CCC4NC(=O)C=CC4(C)C3CCC12C (configuration not stated) [Finasteride] | class 1 |
| CN1CCC(c2ccc(F)cc2)C(COc2ccc3c(c2)OCO3)C1 (configuration not stated) | class 1 |
| Cc1cc2nc3c(=O)[nH]c(=O)nc-3n(CC(O)C(O)C(O)COP(=O)(O)OP(=O)(O)OCC3OC(n4cnc5c(N)ncnc54)C(O)C3O)c2cc1C (configuration not stated) | class 0 |

* * *

EXPERIMENT: HILIC, Waters ACQUITY UPLC BEH Amide, 100 × 2.1 mm, 1.7 µm; A: water + 0.125% formic acid + 10 mM ammonium formate; B: 5% water + 95% acetonitrile + 0.125% formic acid + 10 mM ammonium formate; gradient (min/%B) 0/100 2/100 7.7/70 9.5/40 10.25/30 12.75/100 17/100
MEASUREMENT PARAMETERS: stereoisomer not certain
Property: LC retention time; scope: individual compounds
RECORDED METRIC: LC retention time

| COMPOUND | MEASURED |
| --- | --- |
| CC1C(c2ccccc2)OCCN1C (stereo not given) | 2.52 min |
| O=C(O)Cc1ccccc1Nc1c(Cl)cccc1Cl | 1.08 min |
| Fc1ccc(C2CCNCC2COc2ccc3c(c2)OCO3)cc1 (stereo not given) | 3.08 min |
| Clc1ccccc1CN1CCc2sccc2C1 | 1.12 min |
| Cc1ncc([N+](=O)[O-])n1CCO | 1.17 min |

* * *

EXPERIMENT: HILIC, Waters ACQUITY UPLC BEH Amide, 100 × 2.1 mm, 1.7 µm; A: water + 0.125% formic acid + 10 mM ammonium formate; B: 5% water + 95% acetonitrile + 0.125% formic acid + 10 mM ammonium formate; gradient (min/%B) 0/100 2/100 7.7/70 9.5/40 10.25/30 12.75/100 17/100
MEASUREMENT PARAMETERS: stereoisomer not certain
# label = True if LC retention time < 2 min else False

| COMPOUND | CLASS LABEL |
| --- | --- |
| COc1ccc(NC=O)c(C(=O)CCNC(C)=O)c1 | True |
| CS(=O)CCC(N)C(=O)O (configuration not stated) [Methioninesulfoxide] | False |
| CCOC(=O)C1=C(C)NC(C)=C(C(=O)OC)C1c1cccc([N+](=O)[O-])c1 (configuration not stated) | True |
| NC(C(=O)NC1C(=O)N2C(C(=O)O)=C(CSc3cn[nH]n3)CSC12)c1ccc(O)cc1 (configuration not stated) | False |
| CCOC(=O)C1C(OC(=O)c2ccccc2)CC2CCC1N2C (configuration not stated) | False |
| CC(C)(O)C1C2OC(=O)C1C1(O)CC3OC34C(=O)OC2C14C (configuration not stated) | True |
| COc1ccc(C(CN(C)C)C2(O)CCCCC2)cc1 (configuration not stated) | False |
